System: PC-3 prostate
Experiment: NCI tumour cell line growth inhibition, 48 h
metric: TGI

Some solved cases for reference:
- compound: "Cc1ccc(NC2=C(Cl)C(=O)c3nc(C)ccc3C2=O)cc1"
  TGI: "2.78 µM"
- compound: "COC(=O)C1=NN2c3ccccc3CN([C@@H](C)c3ccccc3)C(=O)[C@@H]2C1"
  TGI: "> 100 µM"

Bench note: what TGI did "O=S(=O)(Nc1ccc(Cl)c(C(F)(F)F)c1)c1ccc(-c2cnc(C3CC3)o2)cc1" show?
6.59 µM

Check "Cc1cccc(C)c1NC(=S)/N=C/C1=C(O)c2ccccc2C1=O" too.
> 100 µM

Check CCCCCCCCCCCCCCCCCCNc1ccn(C2OC(CO)C(OP(=O)(O)OCC3CCC(n4ccc(N)nc4=O)O3)C2O)c(=O)n1 (stereo unspecified) too.
40.6 µM

Check "C=CC(=O)Nc1cc2c(Nc3ccc(OCc4ccccn4)c(Cl)c3)ncnc2cc1OCCN1CCOCC1" too.
> 100 µM

Check "CCOC(=O)c1c(C)c2c(n1C)CSc1cc(S(=O)(=O)c3ccccc3)c(=O)[nH]c1-2" too.
> 100 µM

Check "O=C1c2cccc3c(N4CCN(c5ccc6c7c(cccc57)C(=O)N(CCN5CCNCC5)C6=O)CC4)ccc(c23)C(=O)N1CCN1CCNCC1" too.
32.4 µM

Check Cc1ccc(C2SC(N)=Nc3c2c(C)nn3C(=O)c2ccncc2)cc1 (stereo unspecified) too.
> 10 µM

====

Tested on: HCT-15 colon
Test: NCI tumour cell line growth inhibition, 48 h
metric: TGI (µM)
A number alone suffices; assume µM.

Some solved cases for reference:
- compound: "O=S(=O)(Nc1ccc(Cl)c(C(F)(F)F)c1)c1ccc(-c2cnc(C3CC3)o2)cc1"
  metric: "TGI"
  reading: 5.57
- compound: "C=CC(=O)Nc1cc2c(Nc3ccc(OCc4ccccn4)c(Cl)c3)ncnc2cc1OCCN1CCOCC1"
  metric: "TGI"
  reading: 14.9
- compound: "C=C1C(=O)C=C2C=C3C(=O)C(C)(C)C[C@]3(O)C12C (stereo not given in full)"
  metric: "TGI"
  reading: 11.7

Lab note: next compound to report on.
Provide the documented TGI with HCT-15 colon as the system for "C=CCC1(O)c2cccc(O)c2C(=O)c2c(O)cccc21"
47.9

====

Measured TGI, listed per entry for reference.
Tested on: MOLT-4 leukemia
Assay: NCI tumour cell line growth inhibition, 48 h
A number alone suffices; assume µM.

Some solved cases for reference:
- entrySmiles: "C[C@]12CC[C@H]3[C@@H](C[C@@H]4SC(Nc5cccc(F)c5)=N[C@@]45CC(=O)CC[C@]35C)[C@@H]1CCC2=O"
  metric: "TGI"
  uom: "µM"
  reading: 28.3
- entrySmiles: "O=C(N/N=C/c1cc2ccccc2c2ccccc12)c1cc(O)c(O)c(O)c1"
  metric: "TGI"
  uom: "µM"
  reading: 18.2
- entrySmiles: "C#C[C@]1(O)CC[C@H]2[C@@H]3CC=C4c5nc(Nc6ccc(OC)cc6OC)sc5CC[C@]4(C)[C@H]3CC[C@@]21C"
  metric: "TGI"
  uom: "µM"
  reading: 4.69

Lab note: next compound to report on.
Provide the documented TGI with MOLT-4 leukemia as the system for "COc1cc2c(cc1OC)-c1cc3ccccc3c(=O)n1CCC2"
10.4
